Please respond with reported EC50 for every item in the list.
test.system: P2Y purinoceptor 2 (Homo sapiens)
Sequence (P41231 whole entry): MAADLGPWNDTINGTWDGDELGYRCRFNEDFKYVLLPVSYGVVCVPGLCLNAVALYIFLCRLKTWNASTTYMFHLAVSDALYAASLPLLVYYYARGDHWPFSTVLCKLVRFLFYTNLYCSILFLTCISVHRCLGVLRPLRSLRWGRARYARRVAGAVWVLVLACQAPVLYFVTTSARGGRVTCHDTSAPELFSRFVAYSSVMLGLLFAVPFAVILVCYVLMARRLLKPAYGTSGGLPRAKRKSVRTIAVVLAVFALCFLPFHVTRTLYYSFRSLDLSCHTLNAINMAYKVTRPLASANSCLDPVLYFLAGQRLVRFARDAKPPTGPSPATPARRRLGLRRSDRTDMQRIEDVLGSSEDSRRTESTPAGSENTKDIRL
method.summary: Agonist activity at human P2Y2 receptor expressed in human 1321N1 by FLIPR assay
Type: functional
Give the number; nM is assumed, so skip it.

Q) Which EC50 is listed for `O=c1c2ccc(F)cc2ccn1[C@@H]1O[C@H](COP(=O)(O)OP(=O)(O)OP(=O)(O)O)[C@@H](O)[C@H]1O` ?
A) 77

Q) Also check `O=c1c2c(ccn1[C@@H]1O[C@H](COP(=O)(O)OP(=O)(O)OP(=O)(O)O)[C@@H](O)[C@H]1O)CCCC2`
A) 55

Q) Next record, please: `N#Cc1ccc2ccn([C@@H]3O[C@H](COP(=O)(O)OP(=O)(O)OP(=O)(O)O)[C@@H](O)[C@H]3O)c(=O)c2c1`
A) 12

Q) Proceed to `Cc1ccc2ccn([C@@H]3O[C@H](COP(=O)(O)OP(=O)(O)OP(=O)(O)O)[C@@H](O)[C@H]3O)c(=O)c2c1`
A) 148

Q) Entry `CSc1cc2ccn([C@@H]3O[C@H](COP(=O)(O)OP(=O)(O)OP(=O)(O)O)[C@@H](O)[C@H]3O)c(=O)c2cc1F` please
A) 3

// data source = ChEMBL document CHEMBL1138369
